The reported numbers originate from the RNAGym collection of RNA variant scans (doi:10.7554/elife.90254).

self-cleavage values by entry
B1: LINE1-full (parent)
chain: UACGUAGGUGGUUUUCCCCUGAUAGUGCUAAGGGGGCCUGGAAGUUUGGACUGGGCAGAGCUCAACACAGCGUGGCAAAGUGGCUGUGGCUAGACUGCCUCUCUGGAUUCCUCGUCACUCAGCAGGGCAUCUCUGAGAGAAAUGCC

Variants of: B1
test details: self-cleavage, relative activity (ratio to wild type); higher = more cleavage; in vitro, sequencing; the parent is a self-cleaving ribozyme

- changes: "G41U U143C"
  self-cleavage: 1.47
- changes: "A42G U115C"
  self-cleavage: 1.67
- changes: "U104A U134A"
  self-cleavage: 1.35
- changes: "U46C U91C"
  self-cleavage: 0.99
- changes: "U85G C128U"
  self-cleavage: 0.39
- changes: "U115A A138U"
  self-cleavage: 1.77
- changes: "U81C U109C"
  self-cleavage: 0.38
- changes: "C76U U96C"
  self-cleavage: 0.13
- changes: "A65G G122U"
  self-cleavage: 0.07
- changes: "U46A A142U"
  self-cleavage: 1.19
- changes: "U109A C145G"
  self-cleavage: 0.98
- changes: "C99U A129G"
  self-cleavage: 0.89
- changes: "A50G G53U"
  self-cleavage: 0
- changes: "A79G C120A"
  self-cleavage: 1.39
- changes: "C51G U96A"
  self-cleavage: 0.05
- changes: "C18U"
  self-cleavage: 1.17
- changes: "G35A A141G"
  self-cleavage: 1.39
- changes: "U1C A121U"
  self-cleavage: 1.06
